assayExplanation: Cytotoxicity against human HepG2.2.15 cells after 48 hrs
Assay type: cell-based
settings: hepg2 2.2.15, 48 h
Reported TC50 values follow for various compounds
The response must be a number in µmol with no trailing unit.

Worked examples, 2 compounds total:
>>> recordedmeasurement("CCOC(=O)C1=C(CN2CCOCC2)NC(c2c(F)cc(F)cc2N2CCOCC2)=NC1c1ccc(F)cc1Cl (stereo not given)")
55.25
>>> recordedmeasurement("CCOC(=O)C1=C(CN2CCNC(=O)C2)NC(c2c(F)cc(F)cc2F)=NC1c1ccc(F)cc1Cl (stereo not given)")
32.85

Consider the compound Nc1ccn([C@@H]2CS[C@H](CO)O2)c(=O)n1 and give its recorded TC50. 5.75

Identify measured TC50 associated with CCOC(=O)C1=C(CN2CCN(C)CC2)NC(c2c(F)cc(F)cc2F)=NC1c1ccc(F)cc1Cl (stereo not given) 98.74

Dear colleague, please send me the reported TC50 for CCOC(=O)C1=C(CN2CCSCC2)NC(c2c(F)cc(F)cc2F)=NC1c1ccc(F)cc1Cl (stereo not given) when you can. 32.73

Source: ChEMBL document CHEMBL3352024
